Test system: CAKI-1 renal
Assay: NCI-60 one-dose screen, 48 h
Settings: 10 µM unless noted
This is part of a sample that, as a whole, favours compounds with a hit. Of some 83,000 tested, about 20% had one in any assay. The source made the active and inactive calls. How the source made its calls: active means growth percent below 10; inactive means the rest.
In this exercise, the only acceptable responses are active, inactive

Past entries and their recorded results:
compound	measurementTarget	cat
Oc1ccc(Cc2ccc(O)c(C3CC(c4ccc(Cl)cc4)=NN3)c2)cc1C1CC(c2ccc(Cl)cc2)=NN1 (stereo not given)	CAKI-1 renal	active
C=C1c2c(C)nn(-c3ccc(C#CCOC4OC(CO)C(O)C(O)C4O)cc3)c2N(C)C23C[C@H]1C1(C)c4c(C)nn(-c5ccc(C#CCOC6OC(CO)C(O)C(O)C6O)cc5)c4N(C)C(C)(C[C@H]12)C3 (stereo not given in full)	CAKI-1 renal	active
O=C1N(C2CCCCC2)C(=O)N1C1CCCCC1	CAKI-1 renal	inactive
O=C(CCc1nnc(SCc2ccccc2)s1)c1nc2ccccc2[nH]1	CAKI-1 renal	inactive

q: Would you mind telling me which call this test gave O=C(C(=O)N1CCOCC1)c1ccc(OC2OC(CO)C(O)C(O)C2O)cc1 (stereo not given) ?
a: inactive

###

System: HOP-62 NSCLC
Assay: NCI-60 one-dose screen, 48 h (100 = growth as untreated, 0 = no growth, -100 = all killed)
Settings: 10 µM unless noted
Description: Growth inhibition of the HOP-62 human Non-Small Cell Lung tumor cell line is measured as a screen for anti-cancer activity. Cells are grown in 96 well plates and exposed to the test compound for 48 hours. Compounds are tested at a single concentration, which is 10^-5 M for most compounds. The reported endpoint is percent growth (GI% or GIPRCNT), where numbers from 0 - 100% represent growth inhibition, and numbers from -100% - 0 represent cell death. […]
About 83,000 compounds went through this panel and 20% of them were active in at least one assay; those are over-represented in the sample as a whole.
valueKind: growth (%)
Write the number in % without appending the unit.

querySmiles	growth [%]
C[n+]1ccc(Nc2ccc(NC(=O)c3ccc(Nc4cc[n+](C)c5ccc(N)cc45)cc3)cc2)cc1	102
COC(=O)CCC1=C(C)C(C)=N/C1=C\c1[nH]c(-c2ccc[nH]2)cc1OC	-3.16
N#Cc1cnc2cc(OC[C@H](O)CO)c(NC(=O)CC3CSSC3)cc2c1Nc1ccc(OCc2cccc(F)c2)c(Cl)c1	-60.8
CCOC(=O)c1c(C)nc(C)c(C(=O)OCC)c1-c1cccnc1	94.6

q: Given O=C1c2ccccc2C(=O)c2c1cccc2-n1nnc2ccccc21 , state its recorded growth.
a: 101

q: # lookup: growth of C[C@]12C[C@H](O)[C@H]3[C@@H](CCC4=CC(=O)CC[C@@]43C)[C@@H]1CC[C@@H]2C(=O)CO
a: 102

q: Give the measured growth of COc1ccc(-n2nnc(C(=O)O)c2-c2cc(OC)c(OC)c(OC)c2)cc1 .
a: 114

q: Can you share its growth? I mean this compound: CC(C)c1ccc(C(=O)Nc2sc3c(CN(C)C)c(O)ccc3c2C(N)=O)cc1
a: 64.4

q: Data request, read-out growth, for CN1COc2ccc3ccccc3c2C1
a: 80.1

q: If you can, please state the reported growth value of O=[N+]([O-])c1ccc2c(c1)S(=O)c1cc([N+](=O)[O-])ccc1N2 .
a: 67.3

All figures here come from PubChem BioAssay (NCI).
